TESTED_SYSTEM: Histone deacetylase
ASSAY_INFO: Inhibition of HDAC in human HeLa cells assessed as induction of histone H3 hyperacetylation after 24 hrs
Format: cell-based
MEASUREMENT_LABEL: EC50 (µM)
One number for each entry, in µM.

Please look at the items below and tell me EC50 for each one, in order.
1. CCSC(=S)SCC(=O)c1ccc(-c2ccc(CNc3cnc4ccccc4c3)cn2)s1
2. CCSC(=S)SCC(=O)c1ccc(CC(=O)Nc2ccc(OC)cc2)s1
3. CCSC(=S)SCC(=O)c1ccc(CC(=O)NCc2ccccc2)s1
4. CCSC(=S)SCC(=O)c1ccc(C)cc1
5. CCOC(=S)SCC(=O)c1ccc(NC(C)=O)cc1

1. 4.8
2. 0.76
3. 2.4
4. 4.8
5. 2.9
